tested on: 855422-203-R-J1-PDC complex spheroids, viability; test: Anticancer human tumor 855422-203-R-J1-PDC patient-derived bladder carcinoma cell line growth inhibition [CLK]; details: second compound 0.1 µM; first compound 10 µM; active compounds read low;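 further: spheroids exposed to drugs for seven days before readout; 100% = DMSO vehicle control wells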
# viability, T/C per entry
Could you give me the number in %? Just the number is fine.

CC(CO)NC(=O)c1cc(-c2ccc(Cl)cc2)nn(-c2cnn(C)c2)c1=O (stereo unspecified) + CNC(=O)c1ccc(Nc2nc(OC3CCCC3)c3c(-c4ccc5nc(C)oc5c4)c[nH]c3n2)c(OC)c1: 42.5
O=C(c1cc(Cc2n[nH]c(=O)c3ccccc23)ccc1F)N1CCN(C(=O)C2CC2)CC1 + CN1CCN(c2cc(C(=O)Nc3cc4cc(-c5cnn(C)c5)ccc4cn3)ccn2)CC1: 80.8
CC(CO)NC(=O)c1cc(-c2ccc(Cl)cc2)nn(-c2cnn(C)c2)c1=O (stereo unspecified) + CN1CCN(c2cc(C(=O)Nc3cc4cc(-c5cnn(C)c5)ccc4cn3)ccn2)CC1: 69.4

### Prompt Answer with viability, T/C of O=c1[nH]cc(F)c(=O)[nH]1 + CNC(=O)c1ccc(Nc2nc(OC3CCCC3)c3c(-c4ccc5nc(C)oc5c4)c[nH]c3n2)c(OC)c1 measured for 855422-203-R-J1-PDC complex spheroids, viability.
### Response 44.9

### Prompt Look up and report measured viability, T/C (855422-203-R-J1-PDC complex spheroids, viability) for the following compound: CC(=O)O[C@H]1C(=O)[C@@]2(C)[C@H]([C@H](OC(=O)c3ccccc3)[C@]3(O)C[C@H](OC(=O)[C@H](O)[C@@H](NC(=O)c4ccccc4)c4ccccc4)C(C)=C1C3(C)C)[C@]1(OC(C)=O)CO[C@@H]1C[C@@H]2O + CNC(=O)c1ccc(Nc2nc(OC3CCCC3)c3c(-c4ccc5nc(C)oc5c4)c[nH]c3n2)c(OC)c1
### Response 25.5

### Prompt Fill in viability, T/C for Nc1ccn(C2OC(CO)C(O)C2(F)F)c(=O)n1 (stereo unspecified) + CN1CCN(c2cc(C(=O)Nc3cc4cc(-c5cnn(C)c5)ccc4cn3)ccn2)CC1 tested with 855422-203-R-J1-PDC complex spheroids, viability.
### Response 4.86
